Biological target: T1, TNFRSF25-Fc fusion protein (UniProt Q93038 25-199, limits assumed, biotinylated in the capture ELISA (site not stated))
T1 construct: also called TNFRSF25-Fc protein; biotinylated antigen protein; not shown: Fc part
T1 sequence (looked up): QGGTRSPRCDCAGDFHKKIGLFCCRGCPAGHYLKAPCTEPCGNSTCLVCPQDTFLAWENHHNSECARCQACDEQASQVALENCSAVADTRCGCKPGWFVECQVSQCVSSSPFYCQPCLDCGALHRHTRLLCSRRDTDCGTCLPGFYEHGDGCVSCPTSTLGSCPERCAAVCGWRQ
Assay: binding ELISA of scFv clones on TNFRSF25-Fc (FIG. 10)
Each item that follows carries a reported Bmax.
Answer field: number only, no words.

Field: example entries. Status: answers known.
[[record]]
binder = "2A5 (scFv, V domains shown, scFv; Frameworks and unchanged CDRs are those of the parental clone) VH: EVQLVESGGGLSQPGNSLQLSCEASGFTFSNHDLNWVRQAPGKGLEWVAYISSASGLISYADAVRGRFTISRDNAKNSLFLQMNNLKSEDTAMYYCARDPAYTGLYALDFWGQGTQVTVSS VL: QPVLTQSPSASASLSGSVKLTCTLSSELSNFTIVWYQQRPDKAPKYVMYLKSDGSHSKGDGIPDRFSGSSSGAHRYLSISNVQSEDDATYFCGMGYTLANQYGWVFGSGTKVTVL"
endpoint_label = "Bmax"
numeric_result = 1.28

[[record]]
binder = "10B8 (scFv, V domains shown, scFv; Frameworks and unchanged CDRs are those of the parental clone) VH: EVQLVESGGGLSQPGNSLQLSCEASGFTFSNHDLNWVRQAPGKGLEWVAYISSASGLISYADAVRGRFTISRDNAKNSLFLQMNNLKSEDTAMYYCARDPAYSGLYALDFWGQGTQVTVSS VL: QPVLTQSPSASASLSGSVKLTCTLSSELSNFTIVWYQQRPDKAPKYVMYLKSDGSHSKGDGIPDRFSGSSSGAHRYLSISNVQSEDDATYFCGAGYTLAGQYGWVFGSGTKVTVL"
endpoint_label = "Bmax"
numeric_result = 1.49

[[record]]
binder = "W3072-z4C12-scFv (scFv, V domains shown, scFv (captured by anti-c-myc antibody); also called WT; wild-type) VH: EVQLVESGGGLSQPGNSLQLSCEASGFTFSNHDLNWVRQAPGKGLEWVAYISSASGLISYADAVRGRFTISRDNAKNSLFLQMNNLKSEDTAMYYCARDPPYSGLYALDFWGQGTQVTVSS VL: QPVLTQSPSASASLSGSVKLTCTLSSELSSYTIVWYQQRPDKAPKYVMYLKSDGSHSKGDGIPDRFSGSSSGAHRYLSISNVQSEDDATYFCGAGYTLAGQYGWVFGSGTKVTVL"
endpoint_label = "Bmax"
numeric_result = 0.1


Let's switch to this binder now.
input: Give its Bmax value. Item: 5E1 (scFv, V domains shown, scFv; Frameworks and unchanged CDRs are those of the parental clone) VH: EVQLVESGGGLSQPGNSLQLSCEASGFTFSNHDLNWVRQAPGKGLEWVAYISSASGLISYADAVRGRFTISRDNAKNSLFLQMNNLKSEDTAMYYCARDPAYTGLYALDFWGQGTQVTVSS VL: QPVLTQSPSASASLSGSVKLTCTLSSELSNYTIVWYQQRPDKAPKYVMYLKSDGSHSKGDGIPDRFSGSSSGAHRYLSISNVQSEDDATYFCGMGYTLANQYGWVFGSGTKVTVL
output: 1.32

Data credit: patent US20210017287A1
